Target: GABA-A receptor; anion channel
Experiment: Partial agonistic activity against specific binding of [3H]-Ro-15-1788 to GABA-A Benzodiazepine receptor in rat cortex
MEASURED ENDPOINT: IC50 (nM)
API: value field is a number in nM; no unit string.

Study these solved cases before continuing.
COMPOUND | UNIT TAG | RECORDED RESULT
O=C1C2C=Nc3ccccc3C2=NN1c1ccccc1 (stereo not drawn) | nM | 0.13
COc1ccc(-n2nc3c4ccccc4[nH]cc-3c2=O)cc1 | nM | 0.38

Next up:
Query O=C1C2C=Nc3ccccc3C2=NN1c1ccc(Cl)cc1 (stereo not drawn) yields IC50 of 0.56
